- tgt: JNK2 (Homo sapiens (Human))
- Sequence (P45984 whole entry, species assumed): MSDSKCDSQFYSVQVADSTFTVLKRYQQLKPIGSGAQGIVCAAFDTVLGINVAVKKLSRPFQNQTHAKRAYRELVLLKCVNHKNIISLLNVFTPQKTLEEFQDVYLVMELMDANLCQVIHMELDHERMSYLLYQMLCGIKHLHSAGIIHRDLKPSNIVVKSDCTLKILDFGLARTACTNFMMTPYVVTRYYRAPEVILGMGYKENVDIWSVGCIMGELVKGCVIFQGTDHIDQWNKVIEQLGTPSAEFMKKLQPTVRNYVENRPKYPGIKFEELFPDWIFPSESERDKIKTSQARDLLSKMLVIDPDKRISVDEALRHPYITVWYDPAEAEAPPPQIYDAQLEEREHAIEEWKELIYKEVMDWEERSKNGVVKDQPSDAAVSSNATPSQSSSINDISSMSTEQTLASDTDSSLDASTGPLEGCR
- assay comment: JNK2 kinase selectivity assay
- Format: biochemical
- condition label: 1 μM inhibitor concentration
measured metric: percentage inhibition of JNK2 (percentage)
Expressed in percentage, but write only the number.

Study these solved cases before continuing.
| compound structure string | percentage inhibition of JNK2 (percentage) |
| --- | --- |
| c1cc2[nH]nc3c2c(n1)N(C1CCOCC1)CCC3 | 0 |
| CN1CCC(N2Cc3ccccc3-c3n[nH]c4ccnc2c34)CC1 | 41 |
| c1cc2[nH]nc3c2c(n1)N(C1CCCC1)CCC3 | 0 |
| c1cc2[nH]nc3c2c(n1)N(C1CCC1)CCC3 | 1 |

Continue with the next molecule.
Write down the reported percentage inhibition of JNK2 of CC(C)n1ncc2c1CN(C1CCN(C)CC1)c1nccc3[nH]nc-2c13 , test system: JNK2 (Homo sapiens (Human)). 37
